# credit: patent US11702441B2

The listing below reports log10 IC50 for compounds tested on PRMT5-MEP50 enzyme (Homo sapiens, UniProt O14744).
Sequence (O14744 whole entry): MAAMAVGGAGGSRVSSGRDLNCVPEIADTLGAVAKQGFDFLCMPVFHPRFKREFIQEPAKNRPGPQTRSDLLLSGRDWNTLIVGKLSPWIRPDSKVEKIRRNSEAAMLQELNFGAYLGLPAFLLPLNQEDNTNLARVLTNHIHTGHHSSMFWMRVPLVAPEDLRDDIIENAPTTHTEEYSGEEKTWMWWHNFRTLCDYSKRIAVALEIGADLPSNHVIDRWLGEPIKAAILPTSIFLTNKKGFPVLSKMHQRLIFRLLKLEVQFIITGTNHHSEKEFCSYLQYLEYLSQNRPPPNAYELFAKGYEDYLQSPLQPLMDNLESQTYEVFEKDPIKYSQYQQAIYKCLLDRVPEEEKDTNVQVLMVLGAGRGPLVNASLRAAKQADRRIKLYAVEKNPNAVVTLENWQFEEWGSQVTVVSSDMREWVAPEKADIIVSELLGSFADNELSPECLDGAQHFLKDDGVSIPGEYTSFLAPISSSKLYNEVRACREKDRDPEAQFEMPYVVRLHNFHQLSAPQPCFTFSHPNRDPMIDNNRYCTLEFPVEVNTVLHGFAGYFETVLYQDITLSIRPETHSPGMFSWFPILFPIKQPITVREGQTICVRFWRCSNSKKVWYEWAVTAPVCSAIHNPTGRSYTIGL
Sequence (Q9BQA1 whole entry partner): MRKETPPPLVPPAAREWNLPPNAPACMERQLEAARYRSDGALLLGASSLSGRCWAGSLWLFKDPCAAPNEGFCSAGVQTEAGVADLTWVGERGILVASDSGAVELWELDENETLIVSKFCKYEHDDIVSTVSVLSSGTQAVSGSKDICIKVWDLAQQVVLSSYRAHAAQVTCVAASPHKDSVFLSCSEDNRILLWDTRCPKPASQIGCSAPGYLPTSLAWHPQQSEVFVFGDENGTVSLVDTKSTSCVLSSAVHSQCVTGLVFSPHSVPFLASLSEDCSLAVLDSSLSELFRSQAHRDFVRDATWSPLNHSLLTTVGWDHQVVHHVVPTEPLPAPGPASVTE
outcome_measure: log10 IC50 (log10 of the value in µM)

- compound: "Nc1ncnc2c1ncn2[C@@H]1O[C@]2(C[C@H](O)C2)[C@@H](O)[C@H]1O [Compound 8]"
  measured_target: "PRMT5-MEP50 enzyme (Homo sapiens, UniProt O14744)"
  log10 IC50: 0.55
- compound: "Nc1ncnc2c1ccn2[C@@H]1C[C@]2(C[C@@H](Cc3ccn4ccnc4c3)C2)[C@@H](O)[C@H]1O [Compound 25]"
  measured_target: "PRMT5-MEP50 enzyme (Homo sapiens, UniProt O14744)"
  log10 IC50: -1.99
- compound: "Nc1nc2cc(C[C@H]3C[C@]4(C[C@@H](n5ccc6c(N)ncnc65)[C@H](O)[C@@H]4O)C3)ccc2cc1Br [Compound 33]"
  measured_target: "PRMT5-MEP50 enzyme (Homo sapiens, UniProt O14744)"
  log10 IC50: -0.61
- compound: "Nc1ncnc2c1ncn2[C@@H]1O[C@]2(C[C@@H](OCc3ccccc3)C2)[C@@H](O)[C@H]1O [Compound 1]"
  measured_target: "PRMT5-MEP50 enzyme (Homo sapiens, UniProt O14744)"
  log10 IC50: 0.48
- compound: "Nc1ncnc2c1ccn2[C@@H]1C[C@]2(C[C@H](Oc3ccc4cc(Cl)cnc4c3)C2)[C@@H](O)[C@H]1O [Compound 12]"
  measured_target: "PRMT5-MEP50 enzyme (Homo sapiens, UniProt O14744)"
  log10 IC50: 0.38
- compound: "Nc1ncnc2c1ccn2[C@@H]1C[C@]2(C[C@@H](Cc3ccc4ncsc4c3)C2)[C@@H](O)[C@H]1O [Compound 21]"
  measured_target: "PRMT5-MEP50 enzyme (Homo sapiens, UniProt O14744)"
  log10 IC50: -0.84
- compound: "Nc1ncnc2c1ccn2[C@@H]1C[C@]2(C[C@@H](Cc3ccc4scnc4c3)C2)[C@@H](O)[C@H]1O [Compound 17]"
  measured_target: "PRMT5-MEP50 enzyme (Homo sapiens, UniProt O14744)"
  log10 IC50: -0.41
- compound: "Nc1nc2cc(C[C@H]3C[C@]4(C[C@@H](n5ccc6c(N)ncnc65)[C@H](O)[C@@H]4O)C3)ccc2s1 [Compound 18]"
  measured_target: "PRMT5-MEP50 enzyme (Homo sapiens, UniProt O14744)"
  log10 IC50: -1.45
- compound: "Nc1ncnc2c1ncn2[C@@H]1O[C@]2(C[C@@H](O)C2)[C@@H](O)[C@H]1O [Compound 7]"
  measured_target: "PRMT5-MEP50 enzyme (Homo sapiens, UniProt O14744)"
  log10 IC50: 0.70
- compound: "Nc1ncnc2c1ccn2[C@@H]1C[C@]2(C[C@@H](Cc3ccc4cc(Cl)cnc4c3)C2)[C@@H](O)[C@H]1O [Compound 15]"
  measured_target: "PRMT5-MEP50 enzyme (Homo sapiens, UniProt O14744)"
  log10 IC50: 0.04
- compound: "Nc1ncnc2c1ncn2[C@@H]1O[C@]2(C[C@@H](Oc3ccc4ccc(Cl)nc4c3)C2)[C@@H](O)[C@H]1O [Compound 3]"
  measured_target: "PRMT5-MEP50 enzyme (Homo sapiens, UniProt O14744)"
  log10 IC50: 0.91
- compound: "Nc1ncnc2c1ncn2[C@@H]1O[C@]2(C[C@H](Cc3ccc4cc(Cl)cnc4c3)C2)[C@@H](O)[C@H]1O [Compound 44]"
  measured_target: "PRMT5-MEP50 enzyme (Homo sapiens, UniProt O14744)"
  log10 IC50: 0.66
- compound: "Nc1ncnc2c1ccn2[C@@H]1C[C@]2(C[C@H](Oc3ccc4cccnc4c3)C2)[C@@H](O)[C@H]1O [Compound 11]"
  measured_target: "PRMT5-MEP50 enzyme (Homo sapiens, UniProt O14744)"
  log10 IC50: -1.04
- compound: "Nc1ncnc2c1ccn2[C@@H]1C[C@]2(C[C@@H](CO)C2)[C@@H](O)[C@H]1O (single isomer, unassigned) [Compound 36]"
  measured_target: "PRMT5-MEP50 enzyme (Homo sapiens, UniProt O14744)"
  log10 IC50: 0.15
